Assay: chemical genetic growth profiling, strain panel (AID 1159580);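 further: tested at 20 µM; growth read once vehicle control cultures reached saturation at 30 °C; 1 = growth at the plate median or of vehicle wells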
Conditions: S. cerevisiae deletion strains, growth OD, locus YIL066C, strain RNR3, stronger effect = lower value
Hit rate of the full screen: of about 5,500 compounds, about 2,000 (36%) were called active. About 18% were inconclusive and are not listed. This is one part of the list.
Measure: normalized growth

• CC1CC2C(C(O)CC3(C)C2CCC3(O)C(=O)COC(=O)CCC(=O)O)C2(C)C=CC(=O)C=C12 (centres undefined) = 1.03
• Nc1ccc(S(=O)(=O)Nc2nccs2)cc1 = 1.02
• Nc1nccs1 = 0.953
• O=C(O)CCCCC1SCC2NC(=O)NC21 (centres undefined) = 1.01

###

Assay: chemical genetic growth profiling, strain panel (AID 1159580);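 further: tested at 20 µM; growth read once vehicle control cultures reached saturation at 30 °C; 1 = growth at the plate median or of vehicle wells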
Conditions: S. cerevisiae deletion strains, growth OD, locus YIL073C, strain SPO22, stronger effect = lower value
About 2,000 (36%) of roughly 5,500 compounds were called active. About 18% were inconclusive and are not listed. The list shows a part of the results.
Lab note: cut-off is 0.9. Strictly less in normalized growth is label 1. Exactly 0.9 or more is label 0.

- CC12CCC(CC1)C(C)(C)O2: label 0
- O=C(O)P(=O)(O)O: label 1
- CC[C@@H](C(=O)O)[C@@H]1O[C@@H]([C@@H](C)[C@H](O)[C@H](C)C(=O)[C@H](CC)[C@H]2O[C@]3(C=C[C@@H](O)[C@]4(CC[C@@](C)(C5CC[C@](O)(CC)[C@H](C)O5)O4)O3)[C@H](C)C[C@@H]2C)[C@@H](C)C[C@H]1C (stereo partly drawn): label 1
- CC(=O)O[C@H]1CC[C@@]2(C)C(=CCC3C2CC[C@@]2(C)C3CC[C@@H]2C(C)CCCC(C)C)C1 (stereo partly drawn): label 0
- CC(=O)C1=C(O)C2C3c4c[nH]c5cccc(c45)CC3C(C)(C)N2C1=O (stereo not drawn): label 0
- CCOP(=S)(OCC)SCCSCC: label 0
- COc1cc(C(=O)O)cc(OC)c1O: label 0
- C[C@@H]1CC2C3CCC4=CC(=O)C=C[C@]4(C)[C@@]3(F)[C@@H](O)C[C@]2(C)[C@@]1(O)C(=O)COP(=O)(O)O (stereo partly drawn): label 0
- CCN(CC)CCOC(=O)C(Cc1cccc2ccccc12)CC1CCCO1 (stereo not drawn): label 0
- CC(Cc1ccc(O)c(O)c1)(NN)C(=O)O (stereo not drawn): label 0
- NC(=O)N/N=C\c1ccc([N+](=O)[O-])o1: label 0
- CC(=O)O[C@H]1C[C@@H](OC(C)=O)C(C)(C)C2C[C@@H](OC(C)=O)[C@]3(C)C(CC[C@@]4(C)[C@H](c5ccoc5)C(=O)[C@H]5O[C@]543)[C@]21C (stereo partly drawn): label 0
- O=C(O)CCC(=O)c1ccc(-c2ccccc2)cc1: label 0
- O=C(O)c1cc(O)c(O)c(O)c1: label 0
- O=C(O)CNCP(=O)(O)O: label 0
- S=c1[nH]c2ccccc2s1: label 1
- CC12CCC3C(CC=C4CC(O)CCC43C)C1CCC2=O (stereo not drawn): label 1
- C=CC1=C(C)/C(=C/c2[nH]c(Cc3[nH]c(/C=C4\NC(=O)C(C)=C4C=C)c(C)c3CCC(=O)O)c(CCC(=O)O)c2C)NC1=O: label 0
- O=C(O)c1cc(=O)c(O)c2c(O)c(O)ccc2c1: label 0
